study-system: T1, human IL-21R expressed on cells (human, UniProt Q9HBE5 20-538)
T1 construct: also called human IL-21R-BaF3; human IL-21R-TF1
T1 sequence (Q9HBE5 20-538 limits assumed): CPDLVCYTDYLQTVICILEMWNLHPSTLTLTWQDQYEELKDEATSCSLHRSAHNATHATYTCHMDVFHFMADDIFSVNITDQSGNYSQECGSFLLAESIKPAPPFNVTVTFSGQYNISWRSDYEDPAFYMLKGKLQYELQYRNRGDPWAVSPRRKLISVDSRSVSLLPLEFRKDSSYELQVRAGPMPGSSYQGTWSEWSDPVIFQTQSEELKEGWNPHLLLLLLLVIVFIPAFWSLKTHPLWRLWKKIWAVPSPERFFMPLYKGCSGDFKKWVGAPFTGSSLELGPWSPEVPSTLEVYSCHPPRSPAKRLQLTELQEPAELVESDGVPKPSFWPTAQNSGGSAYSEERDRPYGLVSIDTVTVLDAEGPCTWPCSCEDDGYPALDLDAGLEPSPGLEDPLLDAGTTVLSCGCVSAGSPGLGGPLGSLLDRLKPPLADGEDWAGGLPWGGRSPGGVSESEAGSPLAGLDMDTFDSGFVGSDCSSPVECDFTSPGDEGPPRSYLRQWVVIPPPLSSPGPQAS
assay: cell ELISA, CHO cells
measurement-label: A450 (13 nM Ab) (A450)
Number in A450, nothing else.

Would you please look over these solved cases?
AbP (antibody, human IgG1, V domains shown, CDR3 graft, residue limits derived as for m29; also called VHP/VL20; VHPTM/VL20) VH: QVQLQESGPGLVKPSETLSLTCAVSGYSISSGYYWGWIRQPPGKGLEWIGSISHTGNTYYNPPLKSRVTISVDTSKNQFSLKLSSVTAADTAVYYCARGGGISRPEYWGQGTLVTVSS VL: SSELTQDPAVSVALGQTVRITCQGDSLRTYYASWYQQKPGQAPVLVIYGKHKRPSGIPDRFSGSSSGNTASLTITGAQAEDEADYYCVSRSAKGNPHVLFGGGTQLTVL    1.31
AbK (antibody, IgG1, V domains shown, As for AbA: IgG1/lambda, CDR3 graft, residue limits derived; also called VH3/VL3) VH: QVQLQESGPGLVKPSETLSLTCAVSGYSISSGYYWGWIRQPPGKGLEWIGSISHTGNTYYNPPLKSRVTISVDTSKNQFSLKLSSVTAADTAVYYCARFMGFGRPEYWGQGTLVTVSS VL: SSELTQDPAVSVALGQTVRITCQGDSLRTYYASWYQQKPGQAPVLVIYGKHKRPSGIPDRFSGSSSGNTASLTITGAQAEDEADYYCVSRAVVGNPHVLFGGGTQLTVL    1.36
AbC (antibody, IgG1, V domains shown, As for AbA: IgG1/lambda, CDR3 graft, residue limits derived; also called VHP/VL11) VH: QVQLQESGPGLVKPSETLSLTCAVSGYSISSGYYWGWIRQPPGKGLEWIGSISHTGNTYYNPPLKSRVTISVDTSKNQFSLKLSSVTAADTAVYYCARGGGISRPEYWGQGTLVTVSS VL: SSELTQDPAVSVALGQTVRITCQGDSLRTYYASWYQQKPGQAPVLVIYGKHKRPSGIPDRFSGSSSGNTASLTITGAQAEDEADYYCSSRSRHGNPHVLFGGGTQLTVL    1.22

(Q) Give the measured A450 (13 nM Ab) of AbG (antibody, IgG1, V domains shown, As for AbA: IgG1/lambda, CDR3 graft, residue limits derived; also called VHP/VL18) VH: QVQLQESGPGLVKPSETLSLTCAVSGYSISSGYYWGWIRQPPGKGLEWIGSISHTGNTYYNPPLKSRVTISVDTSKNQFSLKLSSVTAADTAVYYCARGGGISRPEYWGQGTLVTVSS VL: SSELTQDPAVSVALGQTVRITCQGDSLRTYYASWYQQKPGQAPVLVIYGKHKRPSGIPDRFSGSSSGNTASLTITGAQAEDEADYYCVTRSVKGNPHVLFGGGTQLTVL .
(A) 1.35

(Q) Give the measured A450 (13 nM Ab) of AbA (antibody, V domains shown, Human IgG1/lambda, transiently expressed; also called VHP/VL2) VH: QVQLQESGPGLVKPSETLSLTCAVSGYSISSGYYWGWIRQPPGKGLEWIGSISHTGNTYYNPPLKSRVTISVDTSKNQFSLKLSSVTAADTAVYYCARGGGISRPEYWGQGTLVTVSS VL: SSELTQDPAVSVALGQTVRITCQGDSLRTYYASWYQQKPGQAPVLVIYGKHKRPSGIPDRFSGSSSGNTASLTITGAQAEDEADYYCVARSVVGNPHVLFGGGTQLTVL .
(A) 1.2
